# assay remarks: clinical
# details: human, in vivo, 55 mg, CL/Fss
assay endpoint: CL/F (mL/min)
Provide only the numeric value, understood in mL/min.

Which CL/F reading was recorded for the compound CN(C)C/C=C/C(=O)Nc1cc2c(Nc3ccc(F)c(Cl)c3)ncnc2cc1O[C@H]1CCOC1 ?
653
